Listed compounds paired with reported GI
# System: Saprolegnia
# Protocol notes: Antifungal activity against Saprolegnia species assessed as lowest dose required to total inhibition of fungal growth
# Type: functional

[
  {
    "Compound": "Clc1ccc(OCC(Cn2ccnc2)c2ccc(Cl)cc2Cl)cc1.O=[N+]([O-])O (centres undefined)",
    "GI": "100 µg/mL"
  }
]

Dear colleague, I am looking for the recorded GI of the following compound: Clc1ccc(C(CCCOc2ccccc2Br)Cn2ccnc2)c(Cl)c1.O=C(O)C(=O)O (centres undefined)
100 µg/mL

Dear colleague, I am looking for the recorded GI of the following compound: Clc1ccc(C(CCOc2ccc(Br)cc2)Cn2ccnc2)c(Cl)c1.O=[N+]([O-])O (centres undefined)
<10 µg/mL

Dear colleague, I am looking for the recorded GI of the following compound: COc1ccc(OCCC(Cn2ccnc2)c2ccc(Cl)cc2Cl)cc1.O=[N+]([O-])O (centres undefined)
<1 µg/mL

Dear colleague, I am looking for the recorded GI of the following compound: Fc1ccc(OCCCC(Cn2ccnc2)c2ccc(Cl)cc2Cl)cc1.O=C(O)C(=O)O (centres undefined)
10 µg/mL

Dear colleague, I am looking for the recorded GI of the following compound: Clc1ccc(C(CCOc2ccccc2Cl)Cn2ccnc2)c(Cl)c1.O=C(O)C(=O)O (centres undefined)
100 µg/mL

Dear colleague, I am looking for the recorded GI of the following compound: Clc1ccc(C(CCCOc2ccc(Br)cc2)Cn2ccnc2)c(Cl)c1.O=C(O)C(=O)O (centres undefined)
100 µg/mL

Dear colleague, I am looking for the recorded GI of the following compound: Clc1ccc(C(CCOc2ccccc2)Cn2ccnc2)c(Cl)c1.O=C(O)C(=O)O (centres undefined)
100 µg/mL

Dear colleague, I am looking for the recorded GI of the following compound: Clc1ccc(C(COc2ccccc2Cl)Cn2ccnc2)cc1.O=[N+]([O-])O (centres undefined)
>100 µg/mL

---

Listed compounds paired with reported GI
# Test system: Candida albicans
# Protocol notes: Antifungal activity against Candida albicans assessed as lowest dose required to total inhibition of fungal growth
# Type: functional
Respond with the bare value in µg/mL.

# count of solved cases: 3
[
  {
    "Compound": "Clc1ccc(COC(Cn2ccnc2)c2ccc(Cl)cc2Cl)c(Cl)c1 (stereo not given)",
    "System": "Candida albicans",
    "Endpoint unit": "µg/mL",
    "Test result": 10
  },
  {
    "Compound": "Clc1ccc(C(CCOc2ccccc2)Cn2ccnc2)c(Cl)c1.O=C(O)C(=O)O (stereo not given)",
    "System": "Candida albicans",
    "Endpoint unit": "µg/mL",
    "Test result": 10
  },
  {
    "Compound": "Clc1ccc(C(COc2ccccc2Cl)Cn2ccnc2)cc1.O=[N+]([O-])O (stereo not given)",
    "System": "Candida albicans",
    "Endpoint unit": "µg/mL",
    "Test result": 100
  }
]

Dear colleague, I am looking for the recorded GI of the following compound: Clc1ccc(OCC(Cn2ccnc2)c2ccc(Br)cc2)cc1.O=[N+]([O-])O (stereo not given)
100

Dear colleague, I am looking for the recorded GI of the following compound: Clc1ccc(C(CCCOc2ccccc2Br)Cn2ccnc2)c(Cl)c1.O=C(O)C(=O)O (stereo not given)
100

Dear colleague, I am looking for the recorded GI of the following compound: Clc1ccc(OCCC(Cn2ccnc2)c2ccc(Cl)cc2Cl)cc1.O=[N+]([O-])O (stereo not given)
10

Dear colleague, I am looking for the recorded GI of the following compound: Clc1ccc(C(COc2ccccc2Cl)Cn2ccnc2)c(Cl)c1.O=[N+]([O-])O (stereo not given)
100

Dear colleague, I am looking for the recorded GI of the following compound: COc1ccc(OCCCC(Cn2ccnc2)c2ccc(Cl)cc2Cl)cc1.O=C(O)C(=O)O (stereo not given)
10

Dear colleague, I am looking for the recorded GI of the following compound: Clc1ccc(C(COc2ccc(Cl)cc2Cl)Cn2ccnc2)cc1.O=[N+]([O-])O (stereo not given)
10
